Molecular target: EHMT1 (Homo sapiens)
Sequence (Q9H9B1 whole entry, species assumed): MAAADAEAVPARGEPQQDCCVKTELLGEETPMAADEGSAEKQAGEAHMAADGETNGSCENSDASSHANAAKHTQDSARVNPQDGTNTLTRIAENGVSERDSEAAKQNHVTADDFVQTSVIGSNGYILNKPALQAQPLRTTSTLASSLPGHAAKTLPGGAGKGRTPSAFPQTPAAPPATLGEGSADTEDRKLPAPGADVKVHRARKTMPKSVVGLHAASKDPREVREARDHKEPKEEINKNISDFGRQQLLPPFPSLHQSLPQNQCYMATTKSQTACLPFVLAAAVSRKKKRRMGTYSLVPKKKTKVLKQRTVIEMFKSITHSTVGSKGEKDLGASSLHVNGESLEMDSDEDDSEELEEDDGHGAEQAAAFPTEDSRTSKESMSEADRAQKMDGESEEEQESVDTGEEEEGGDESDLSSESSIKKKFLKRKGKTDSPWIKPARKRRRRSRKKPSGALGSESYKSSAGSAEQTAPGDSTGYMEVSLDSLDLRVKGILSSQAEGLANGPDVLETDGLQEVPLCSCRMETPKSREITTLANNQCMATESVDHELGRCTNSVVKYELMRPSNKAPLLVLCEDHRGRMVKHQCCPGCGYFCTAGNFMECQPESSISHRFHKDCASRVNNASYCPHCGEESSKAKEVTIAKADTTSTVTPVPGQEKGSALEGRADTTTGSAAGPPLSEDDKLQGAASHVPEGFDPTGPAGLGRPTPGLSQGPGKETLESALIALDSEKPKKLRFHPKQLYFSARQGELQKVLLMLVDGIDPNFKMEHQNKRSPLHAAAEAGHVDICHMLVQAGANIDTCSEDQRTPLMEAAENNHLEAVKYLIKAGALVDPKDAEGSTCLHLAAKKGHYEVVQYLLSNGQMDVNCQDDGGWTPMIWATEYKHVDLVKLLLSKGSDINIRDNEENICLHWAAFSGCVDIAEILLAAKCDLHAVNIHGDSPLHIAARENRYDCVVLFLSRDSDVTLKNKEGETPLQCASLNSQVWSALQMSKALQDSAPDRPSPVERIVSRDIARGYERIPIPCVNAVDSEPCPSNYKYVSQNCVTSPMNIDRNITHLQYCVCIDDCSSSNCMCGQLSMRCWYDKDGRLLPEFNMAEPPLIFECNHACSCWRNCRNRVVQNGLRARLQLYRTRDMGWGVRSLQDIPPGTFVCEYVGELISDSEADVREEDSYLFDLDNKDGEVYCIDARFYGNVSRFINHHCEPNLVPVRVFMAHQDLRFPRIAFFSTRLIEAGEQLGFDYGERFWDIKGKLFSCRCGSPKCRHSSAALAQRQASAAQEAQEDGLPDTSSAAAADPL
Test: EHMT1 enzyme assay on peptide substrate (EHMT1 PEP)
Assay type: biochemical
Conditions: Table II; read-out: EHMT1 PEP (IC50 μM)
For each of the compounds below, state its IC50.

[in] Could you tell me which IC50 is on file for COc1ccc(Nc2cc(NCC3CCNCC3)ncn2)cc1OCCCN1CCCC1 ?
[out] 1 to 10 µM

[in] Same question, O=C1Cc2cc(C(=O)NCCNc3nccc(NCC4CCNCC4)n3)ccc2N1 this time
[out] > 10 µM

[in] Same question, CCCCNc1nccc(NCC2CCCCC2)n1 this time
[out] > 10 µM

[in] Same question, CC(C)Nc1ccnc(Nc2cccc(OCCCN3CC[C@@H](F)C3)c2)n1 this time
[out] > 10 µM

[in] Same question, CCCCNc1nccc(NC2CCN(C(C)=O)CC2)n1 this time
[out] > 10 µM

[in] Same question, COc1ccc(Nc2nccc(NCC3CCN(c4ccccc4)CC3)n2)cc1OCCCN1CCCC1 this time
[out] 0.1 to 1 µM

[in] Same question, COc1ccc(Nc2cc(N(C)CC3CCN(C(C)=O)CC3)ccn2)cc1OCCCN1CCCC1 this time
[out] > 10 µM

[in] Same question, COc1ccc(Nc2nccc(NCC(C)(C)O)n2)cc1OCCCN1CCCC1 this time
[out] 0.1 to 1 µM
